Assay: protein stability index of a GFP-peptide fusion (yeast GPS) (PSI 1-4); higher = more stable; sorted into four equal gates, so the index is relative within each strain
Details: doa10∆
QUANTITY_MEASURED: protein stability index
Simply state the number, no unit and no words.

Per the record, QESSSLRLLEVTDDDRL [POP8] has protein stability index of 2.1

Value of protein stability index reported for the sequence LKEVPTYRYVSVSVLVD [RPS25A] is 2.64

Noted for AELFNNDIKLFVDDTNV [PRP8] : its protein stability index reads 2.17

Record DTQFTKLLDDNPTEFDW [SRB8] , field protein stability index: 2.99

QFLYEKHYKNIPRNSPL [RPC82] yielded protein stability index of 1.92

Briefly, protein stability index measured for LMRQALAIKDSKKRFAA [RPO21] : 1.83

Measured protein stability index, PRKLVLSSGENRYAFSQ [SMC4] : 1.39

Record AQFQYTLDRNTAAETFK [RPL8A] , field protein stability index: 2.15

protein stability index in this record for VYAFKAKNKSTRINGLN [REC8] : 1.53

Lab note: measured protein stability index of VSTAAAATVRSTIRRLR [RPL43A] was 2.54

Looking up IMQEAGLRAVRKNRYVI [RPT3] , I found its protein stability index recorded as 2.89

Per the record, ELNDNPAWFNNPRKRAI [YMR153W/NUP53] has protein stability index of 3.09

Record KVLNEISKTTLTLDPRY [RPN3] . Reported protein stability index: 2.88

Form field protein stability index, entry QDIKKAKRVENFNSSAP [DSN1] : 3.31

What the record says about LVEAAKLLKIPKFISEA [YDL116W/NUP84] : protein stability index is 2.65

Record AKFFLNVSDEQLSNWQK [ITC1] , field protein stability index: 3.21

For this sequence ( SSDDRVKVLAATNRVDV [RPT5] ), measured protein stability index is 2.66

So for PVKALNECIASTSNALK [SNF12] , the logged protein stability index turned out to be 2.85

Documented protein stability index of QDVDFYKNLDRGFSKDL [RRP6] : 3.44

For PLKRAIWLIKCCYFIEW [SRB8] the sequence record lists protein stability index as 2.56

Briefly, protein stability index measured for FTNVLTKYSDVLGFLQL [YJL039C/NUP192] : 2.59

Lookup result for IRKGPAPLNLEIPAYEF [RIP1] ; measured protein stability index: 2.76

# protein stability index of LTPNEIKELEHLHDAVF [SWP82] = 2.95

// protein stability index value for SNSNNNGNKDSSFNFNK [SWI1] : 3.04

The recorded protein stability index for RKLEISSRFKHRQEIFK [GAL11] is 2.76

get_value(item= HLRKLLDGELDFDDFLK [RET1] , readout=protein stability index) returns 3.04

// protein stability index lookup, sequence = YDGDTVTFSPTGRLFQV [PRE5] , result: 2.96

// sample PPPPQQSQPIANQSATS [SNF5] , its protein stability index was 2.96

Per the records, this sequence ( VPTSIQTKRWPTMYTRL [SIN4] ) has protein stability index equal to 2.18

So for SQLQEQFNKILPEPTEG [FAS1] , the logged protein stability index turned out to be 2.82

protein stability index for QEAVNSLKGYKIENSVQ [CSI1] is 3.2

Reported protein stability index ( QLQQQPQMQCALQNLSQ [YGL172W/NUP49] ) = 2.19

The measured protein stability index associated with KSFTNDKIPLNYAMTRN [SRB5] reads 2.8

Recorded result, EISAAHNKLNITSDALE [SMC3] , protein stability index: 2.64

The reported protein stability index of the sequence KNRSTIFWGIRLAKSTE [BRR2] was 3.04

The sequence identified as DSSVEDSTDNENSGKEM [LIN1] registered its protein stability index at 3.04

The reported protein stability index of the sequence INELFKKYTQNNPLLLI [RPN8] was 1.85

The reported protein stability index of the sequence EYKKHFPPNLEKGENPS [UBP6] was 2.9

The measured protein stability index associated with KKSKIQLLDIAEFKKEN [LIN1] reads 1.42

Form field protein stability index, entry GKTIVVKDLGQGLKLAK [SMC3] : 2.9

Reported protein stability index ( DGMYSESKLSLETLFNR [FAS2] ) = 3.39

Summary for this sequence, KLVRDSFTSATERHIQV [PRE7] : protein stability index is 2.78

Entry TFGTKHAADSQNNKPSF [YLR335W/NUP2] — recorded protein stability index = 3.16

Record TIIFIDELDAIGTKRFD [RPT5] , field protein stability index: 2.75

Form: sequence = ILRKSFDFLMNMPNCDY [RPN2] ; protein stability index = 1.3

TFPPEVLARISPELSLQ [RRP43] has a reported protein stability index of 2.32

TMRKISSETDDDHSQVI [DSN1] yielded protein stability index of 2.91

Lab book: protein stability index of LEQIQVQLKDANSQIQA [YIL149C/MLP2] noted as 2.55

Consider FMKKLRAAKLAAPENEK [RPS15] . Its measured protein stability index is 2.85

Entry GRSWDGKEHIVAALVSL [ECM29] , protein stability index reported as 1.88

protein stability index measured on NVPGVETANVASLNLLQ [RPL4A] = 2.71

The recorded protein stability index for entry DGKKHSVFYTILRDYGP [RPO31] equals 2.86

For reference, reported protein stability index for QITPTVPHSHPSDMVIP [SNF12] stands at 2.69

# protein stability index (sequence: IGDKFASRHGQKGTIGI [RPB2] ) is 1.34

get_value(item= NNNNNNNNSNNIMSASG [YGL172W/NUP49] , readout=protein stability index) returns 2.73

# protein stability index (sequence: SEAEYSKDIETLKKEWL [YIL149C/MLP2] ) is 3.26

The sequence identified as VLKACGILSDLEIMQLV [RET1] registered its protein stability index at 1.56

// recorded protein stability index for SLTDVAFFTYDAGVTFN [ECM29] : 2.66

Short answer for NDRESVLTNIEVYRTSL [SMC3] : protein stability index was 2.94

get_value(item= RILAMCVKNHGQSSSIQ [YCS4] , readout=protein stability index) returns 2.11
